System: NCI/ADR-RES ovarian
PROTOCOL_NOTES: NCI tumour cell line growth inhibition, 48 h
QUANTITY_NAME: TGI

Study these solved cases before continuing.
• CC(=O)OCC12C(OC(C)=O)C[C@@H](C)C3(CC(c4ccoc4)OC3=O)C1CCC(O)C21CO1 (stereo not given in full) = > 100 µM
• CNC(C)C(=O)N[C@H](C(=O)N1CCC[C@@H]1CN(CCc1ccccc1)C(=O)C(F)(F)F)[C@H](C)OCC#CC#CCO[C@H](C)[C@H](NC(=O)[C@H](C)NC)C(=O)N1CCC[C@H]1CN(CCc1ccccc1)C(=O)C(F)(F)F (stereo not given in full) = 27.3 µM
• Cc1nc(/N=C(\N)NC(=O)Nc2ccccc2Cl)sc1C = 3.28 µM
• C#COc1cccc(Nc2ncnc3ncc(NC(=O)CCl)cc23)c1 = > 62.5 µM

Which TGI value belongs to O=C1C(Cl)=C(Nc2cccc(O)c2)C(=O)N1c1ccc(Cl)c(Cl)c1 ?
52.3 µM

Look up TGI: N#CC1CCN2N=C(c3ccccc3)SC12c1ccccc1 (stereo not given)
> 100 µM

# TGI lookup, item CCCCN(CCCC)CCCN=c1nc2c(c(N)n1-c1ccccc1)c(=S)n(-c1ccccc1)c(=S)n2-c1ccccc1
4.12 µM

Can you look up the measured TGI of COc1cc2c3c(n(CCN(C)C)c(=O)c2cc1OC)-c1cc2c(cc1C3=O)OCO2 for me?
> 40 µM

Please look up its TGI: C[C@@H](NC(=O)OC1C=CC2(CC1)C(=O)N(C)c1ccccc12)c1cccc2ccccc12 (stereo not given in full)
> 25 µM

Which TGI value is on record for c1ccc2c3c([nH]c2c1)C1c2[nH]c4ccccc4c2CCN1CC3 ?
5.47 µM

Return reported TGI; argument: CC1=CCC[C@@H]2[C@@](C)(Cc3cc(O)ccc3O)[C@H](C)CC[C@@]12C
18.9 µM

I'd like to know its TGI. The molecule in question is CC(C)(C)OC(=O)NC(Cc1cnc[nH]1)C(=O)N1CCCC1C(N)=O (stereo not given)
> 100 µM

Query: TGI; subject: COc1ccc(-c2nn(-c3cccc(NC(=O)Nc4cc(C(F)(F)F)cc(C(F)(F)F)c4)c3)cc2-c2ccncc2)cc1Cl
13.3 µM

What value of TGI has been recorded for this entry: N#Cc1c(-c2ccccc2)cc(-c2ccccc2)n(CCCCC(=O)NO)c1=O
3.18 µM

Quick check: TGI of CC(=O)NCCc1c[nH]c2ccc(Cl)cc12 ?
> 100 µM

Can you share its TGI? I mean this molecule: CCOC(=O)c1cccc([N+](=O)[O-])c1N
> 100 µM

I have this molecule here, CN(C)C=Nc1cccc2cnccc12 , and I need its recorded TGI.
> 100 µM

Look up TGI: COC(=O)C(Cc1ccccc1I)C1=CCC2(CC1)OCCO2 (stereo not given)
55.8 µM
